test: Cytotoxicity against mouse RAW264.7 cells assessed as reduction in cell growth; type: toxicity, cell-based
endpoint name: IC50 (µM)
One number for each entry, in µM.

Ask: Record request: IC50 value, item C=C1CC[C@H]2[C@@H](/C=C(\C)C(=O)[C@@]3(O)C[C@H](C)[C@H](O)[C@@H]3[C@H]1OCc1cn(CCOCCOCCOCCNc3cccc4c3C(=O)N(C3CCC(=O)NC3=O)C4=O)nn1)C2(C)C (stereo partly specified)
Result: 8.34

----------
Exercise: state measured Emax for each of the molecules provided.
target: Protein cereblon/Macrophage migration inhibitory factor (Homo sapiens) (UniProt P14174+Q96SW2); assay: PROTAC activity at E3 ubiquitin ligase/MIF in human A549 cells assessed as induction of MIF degradation by Western blot analysis; format: cell-based
Sequence (P14174 2-115 limits assumed): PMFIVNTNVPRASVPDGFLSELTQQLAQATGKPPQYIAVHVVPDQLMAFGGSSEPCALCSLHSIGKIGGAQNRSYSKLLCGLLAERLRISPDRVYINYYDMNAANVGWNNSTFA
Sequence (Q96SW2 whole entry partner): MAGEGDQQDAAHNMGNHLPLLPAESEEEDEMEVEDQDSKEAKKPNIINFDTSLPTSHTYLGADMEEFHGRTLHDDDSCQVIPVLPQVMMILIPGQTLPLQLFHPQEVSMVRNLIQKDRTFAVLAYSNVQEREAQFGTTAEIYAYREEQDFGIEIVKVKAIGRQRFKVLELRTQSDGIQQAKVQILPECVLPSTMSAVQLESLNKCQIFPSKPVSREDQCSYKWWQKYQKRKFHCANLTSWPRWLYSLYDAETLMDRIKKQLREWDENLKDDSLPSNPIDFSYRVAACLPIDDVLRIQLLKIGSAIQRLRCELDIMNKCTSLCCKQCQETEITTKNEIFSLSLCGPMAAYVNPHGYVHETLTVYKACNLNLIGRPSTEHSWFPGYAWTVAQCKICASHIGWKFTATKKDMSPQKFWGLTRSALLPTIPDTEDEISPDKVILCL
One number for each entry, in %.

Here are 4 molecules together with their reported answers.
> print(dat)
                                   molecule  endpoint.name  result.units  observed
1  O=C1CCC(N2C(=O)c3cccc(NCCCCC(=O)Nc4ccc(N5Cc6ccc(O)cc6OC5=O)cc4)c3C2=O)C(=O)N1 (stereo not given)           Emax             %        21
2  O=C1CCC(N2C(=O)c3cccc(NCCCCCCCC(=O)Nc4ccc(N5Cc6ccc(O)cc6OC5=O)cc4)c3C2=O)C(=O)N1 (stereo not given)           Emax             %        91
3  O=C1CCC(N2C(=O)c3cccc(NCCCCCCC(=O)Nc4ccc(N5Cc6ccc(O)cc6OC5=O)cc4)c3C2=O)C(=O)N1 (stereo not given)           Emax             %        55
4  O=C1CCC(N2C(=O)c3cccc(NCCCCCCCCCC(=O)Nc4ccc(N5Cc6ccc(O)cc6OC5=O)cc4)c3C2=O)C(=O)N1 (stereo not given)           Emax             %        64

Ask: Record request: Emax value, item CN1C(=O)CCC(N2C(=O)c3cccc(NCCCCCCCC(=O)Nc4ccc(N5Cc6ccc(O)cc6OC5=O)cc4)c3C2=O)C1=O (stereo not given)
Result: 55

The measured values listed here are drawn from ChEMBL document CHEMBL5576158.
